system: OVCAR-5 complex spheroids, viability; test: Anticancer human tumor OVCAR-5 cell line growth inhibition; details: second compound 0.316 µM; first compound 10 µM; stronger effect = lower value
Property: viability, T/C; scope: individual molecules

molecule: CC1(C)CCC(CN2CCN(c3ccc(C(=O)NS(=O)(=O)c4ccc(NCC5CCOCC5)c([N+](=O)[O-])c4)c(Oc4cnc5[nH]ccc5c4)c3)CC2)=C(c2ccc(Cl)cc2)C1 + NC1CC1c1ccc(-c2cccc(O)c2)cc1
viability, T/C / %: 35.6

molecule: CC1COCCN1c1cc(C2(S(C)(=N)=O)CC2)nc(-c2ccnc3[nH]ccc23)n1 (stereo not drawn) + NC1CC1c1ccc(-c2cccc(O)c2)cc1
viability, T/C / %: 25.6

molecule: CC(C)c1c(-c2ccccc2)nc2c(C#N)c[nH]n2c1=O + NC1CCC(NC2CC2c2ccccc2)CC1
viability, T/C / %: 121

###

test system: OVCAR-5 complex spheroids, viability; experiment: Anticancer human tumor OVCAR-5 cell line growth inhibition; settings: second compound 0.1 µM; first compound 0.03 µM; stronger effect = lower value
Property: viability, T/C; scope: individual compounds
measurement.type: viability, T/C (%)

compound: Nc1ccccc1NC(=O)c1ccc(CNC(=O)OCc2cccnc2)cc1 + NC1CCC(NC2CC2c2ccccc2)CC1
units.label: %
value: 88.6

compound: Nc1ncn(C2CC(O)C(CO)S2)c(=O)n1 (centres undefined) + NC1CC1c1ccc(-c2cccc(O)c2)cc1
units.label: %
value: 95

compound: COc1cc(C2c3cc4c(cc3C(OC3OC5COC(C)OC5C(O)C3O)C3COC(=O)C23)OCO4)cc(OC)c1O (centres undefined) + NC1CCC(NC2CC2c2ccccc2)CC1
units.label: %
value: 105

compound: Nc1ccn(C2OC(CO)C(O)C2(F)F)c(=O)n1 (centres undefined) + NC1CCC(NC2CC2c2ccccc2)CC1
units.label: %
value: 31.4

###

tested on: OVCAR-5 complex spheroids, viability; experiment: Anticancer human tumor OVCAR-5 cell line growth inhibition; conditions: second compound 0.1 µM; first compound 0.949 µM; stronger effect = lower value;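 note: spheroids exposed to agents for seven days; 100% = DMSO vehicle control wells viability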

compound: COc1cc(C2c3cc4c(cc3C(OC3OC5COC(C)OC5C(O)C3O)C3COC(=O)C23)OCO4)cc(OC)c1O (stereo not drawn) + NC1CCC(NC2CC2c2ccccc2)CC1
viability, T/C (%): 45.6

compound: CCN(c1cc(-c2ccc(CN3CCOCC3)cc2)cc(C(=O)NCc2c(C)cc(C)[nH]c2=O)c1C)C1CCOCC1 + NC1CCC(NC2CC2c2ccccc2)CC1
viability, T/C (%): 106

compound: CCN(c1cc(-c2ccc(CN3CCOCC3)cc2)cc(C(=O)NCc2c(C)cc(C)[nH]c2=O)c1C)C1CCOCC1 + NC1CC1c1ccc(-c2cccc(O)c2)cc1
viability, T/C (%): 107

###

system: OVCAR-5 complex spheroids, viability; assay: Anticancer human tumor OVCAR-5 cell line growth inhibition; conditions: second compound 10 µM; first compound 1 µM; stronger effect = lower value;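 note: spheroids exposed to agents for seven days; 100% = DMSO vehicle control wells viability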
measurement.type: viability, T/C (%)

molecule: O=C(C=Cn1cnc(-c2cc(C(F)(F)F)cc(C(F)(F)F)c2)n1)NNc1cnccn1 + NC1CC1c1ccc(-c2cccc(O)c2)cc1
subject.of.test: OVCAR-5 complex spheroids, viability
measurement.type: viability, T/C
units.label: %
value: 35.2

molecule: O=C(C=Cn1cnc(-c2cc(C(F)(F)F)cc(C(F)(F)F)c2)n1)NNc1cnccn1 + NC1CCC(NC2CC2c2ccccc2)CC1
subject.of.test: OVCAR-5 complex spheroids, viability
measurement.type: viability, T/C
units.label: %
value: 46.3

molecule: CC1(C)CCC(CN2CCN(c3ccc(C(=O)NS(=O)(=O)c4ccc(NCC5CCOCC5)c([N+](=O)[O-])c4)c(Oc4cnc5[nH]ccc5c4)c3)CC2)=C(c2ccc(Cl)cc2)C1 + NC1CC1c1ccc(-c2cccc(O)c2)cc1
subject.of.test: OVCAR-5 complex spheroids, viability
measurement.type: viability, T/C
units.label: %
value: 86

molecule: COc1cc(Nc2ncc3c(n2)-c2ccc(Cl)cc2C(c2c(F)cccc2OC)=NC3)ccc1C(=O)O + NC1CC1c1ccc(-c2cccc(O)c2)cc1
subject.of.test: OVCAR-5 complex spheroids, viability
measurement.type: viability, T/C
units.label: %
value: 43.7

###

System: OVCAR-5 complex spheroids, viability
Assay: Anticancer human tumor OVCAR-5 cell line growth inhibition;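 note: spheroids exposed to agents for seven days; 100% = DMSO vehicle control wells viability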
Conditions: second compound 0.316 µM; first compound 0.0949 µM; stronger effect = lower value
Source text: Multicellular complex tumor spheroid response to LSD1 Inhibitor Iadademstat in combination with a variety of drugs and investigational agents in selected tumor cell lines The current study was undertaken to assess response to LSD1 inhibitors in combination with standard-of-care drugs and investigational agents in solid tumor complex spheroid models as well as in the K-562 leukemia. […] Compounds. […] If the clinical Cmax for an agent had not been determined, the highest concentration tested was 10 microM. […]

compound: COc1cc(C2c3cc4c(cc3C(OC3OC5COC(C)OC5C(O)C3O)C3COC(=O)C23)OCO4)cc(OC)c1O (configuration not stated) + NC1CC1c1ccc(-c2cccc(O)c2)cc1
viability, T/C: 91.8%
--
compound: Nc1ccn(C2OC(CO)C(O)C2(F)F)c(=O)n1 (configuration not stated) + NC1CC1c1ccc(-c2cccc(O)c2)cc1
viability, T/C: 27.1%
--
compound: Nc1ccccc1NC(=O)c1ccc(CNC(=O)OCc2cccnc2)cc1 + NC1CC1c1ccc(-c2cccc(O)c2)cc1
viability, T/C: 65.3%
--
compound: COc1cc(C2c3cc4c(cc3C(OC3OC5COC(C)OC5C(O)C3O)C3COC(=O)C23)OCO4)cc(OC)c1O (configuration not stated) + NC1CCC(NC2CC2c2ccccc2)CC1
viability, T/C: 100%
--
compound: NS(=O)(=O)OCC1CC(n2ccc3c(NC4CCc5ccccc54)ncnc32)CC1O (configuration not stated) + NC1CC1c1ccc(-c2cccc(O)c2)cc1
viability, T/C: 79.6%
--
compound: O=C(C=Cc1cccc(S(=O)(=O)Nc2ccccc2)c1)NO + NC1CCC(NC2CC2c2ccccc2)CC1
viability, T/C: 64.6%
--
compound: CCN(c1cc(-c2ccc(CN3CCOCC3)cc2)cc(C(=O)NCc2c(C)cc(C)[nH]c2=O)c1C)C1CCOCC1 + NC1CCC(NC2CC2c2ccccc2)CC1
viability, T/C: 101%

###

System: OVCAR-5 complex spheroids, viability
Assay: Anticancer human tumor OVCAR-5 cell line growth inhibition;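 note: spheroids exposed to agents for seven days; 100% = DMSO vehicle control wells viability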
Conditions: second compound 0.316 µM; first compound 0.00316 µM; stronger effect = lower value
Source text: Multicellular complex tumor spheroid response to LSD1 Inhibitor Iadademstat in combination with a variety of drugs and investigational agents in selected tumor cell lines The current study was undertaken to assess response to LSD1 inhibitors in combination with standard-of-care drugs and investigational agents in solid tumor complex spheroid models as well as in the K-562 leukemia. […] Compounds. […] If the clinical Cmax for an agent had not been determined, the highest concentration tested was 10 microM. […]

compound: CC(C)CC(NC(=O)CNC(=O)c1cc(Cl)ccc1Cl)B1OC(=O)CC(CC(=O)O)(C(=O)O)O1 (stereo unspecified) + NC1CCC(NC2CC2c2ccccc2)CC1
viability, T/C / %: 113
//
compound: Nc1ncn(C2CC(O)C(CO)O2)c(=O)n1 (stereo unspecified) + NC1CC1c1ccc(-c2cccc(O)c2)cc1
viability, T/C / %: 93.6
//
compound: CC(C)CC(NC(=O)CNC(=O)c1cc(Cl)ccc1Cl)B1OC(=O)CC(CC(=O)O)(C(=O)O)O1 (stereo unspecified) + NC1CC1c1ccc(-c2cccc(O)c2)cc1
viability, T/C / %: 80.4
//
compound: CC1COCCN1c1cc(-c2ccnn2C)c2ccnc(-c3ccn[nH]3)c2n1 (stereo unspecified) + NC1CC1c1ccc(-c2cccc(O)c2)cc1
viability, T/C / %: 105
//
compound: COc1cc(Nc2ncc3c(n2)-c2ccc(Cl)cc2C(c2c(F)cccc2OC)=NC3)ccc1C(=O)O + NC1CCC(NC2CC2c2ccccc2)CC1
viability, T/C / %: 94.5
//
compound: COc1cc(Nc2ncc3c(n2)-c2ccc(Cl)cc2C(c2c(F)cccc2OC)=NC3)ccc1C(=O)O + NC1CC1c1ccc(-c2cccc(O)c2)cc1
viability, T/C / %: 88.9
//
compound: CC[C@@]1(O)C(=O)OCc2c1cc1n(c2=O)Cc2cc3c(CN(C)C)c(O)ccc3nc2-1 + NC1CC1c1ccc(-c2cccc(O)c2)cc1
viability, T/C / %: 48.9
//
compound: Cn1ncnc1C1c2n[nH]c(=O)c3cc(F)cc(c23)NC1c1ccc(F)cc1 (stereo unspecified) + NC1CC1c1ccc(-c2cccc(O)c2)cc1
viability, T/C / %: 95.1
//
compound: O=C(C=Cn1cnc(-c2cc(C(F)(F)F)cc(C(F)(F)F)c2)n1)NNc1cnccn1 + NC1CCC(NC2CC2c2ccccc2)CC1
viability, T/C / %: 104
//
compound: CC(C)CC(NC(=O)C(Cc1ccccc1)NC(=O)c1cnccn1)B(O)O (stereo unspecified) + NC1CCC(NC2CC2c2ccccc2)CC1
viability, T/C / %: 87.4
//
compound: Cn1ncnc1C1c2n[nH]c(=O)c3cc(F)cc(c23)NC1c1ccc(F)cc1 (stereo unspecified) + NC1CCC(NC2CC2c2ccccc2)CC1
viability, T/C / %: 98.3
//
compound: CC(C)CC(NC(=O)C(Cc1ccccc1)NC(=O)c1cnccn1)B(O)O (stereo unspecified) + NC1CC1c1ccc(-c2cccc(O)c2)cc1
viability, T/C / %: 74.6
//
compound: CC[C@@]1(O)C(=O)OCc2c1cc1n(c2=O)Cc2cc3c(CN(C)C)c(O)ccc3nc2-1 + NC1CCC(NC2CC2c2ccccc2)CC1
viability, T/C / %: 56.5
//
compound: Nc1ncn(C2CC(O)C(CO)O2)c(=O)n1 (stereo unspecified) + NC1CCC(NC2CC2c2ccccc2)CC1
viability, T/C / %: 97.7
//
compound: CC1COCCN1c1cc(-c2ccnn2C)c2ccnc(-c3ccn[nH]3)c2n1 (stereo unspecified) + NC1CCC(NC2CC2c2ccccc2)CC1
viability, T/C / %: 110
//
compound: O=C(C=Cn1cnc(-c2cc(C(F)(F)F)cc(C(F)(F)F)c2)n1)NNc1cnccn1 + NC1CC1c1ccc(-c2cccc(O)c2)cc1
viability, T/C / %: 87.8
